Biological target: T1, Mature Activin A (human, UniProt P08476 311-426)
T1 construct: also called active Activin A; INHBA mature
T1 sequence: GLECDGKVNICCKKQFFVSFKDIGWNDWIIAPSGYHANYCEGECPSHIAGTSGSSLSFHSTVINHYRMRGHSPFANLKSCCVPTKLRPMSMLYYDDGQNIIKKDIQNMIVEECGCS
Test: ELISA, coated antigen, OD450
PARAMETER: fold-change of OD 450 over negative control (BSA) (fold)
Numbers only; they are read as fold.

Known fold-change of OD 450 over negative control (BSA) results, listed for orientation:
- BINDER: "AB435 (antibody, IgG1, V domains shown) VH: QVQLQESGPGLVKPSQTLSLTCTVSGYSLTDARIGVNWIRQPPGKGLEWIGYINPSGRTDYNPSLKSRVTMSVDTSKNQFSLKVNSVTAADTAVYYCARAGYPDVWGKGTTVTVSS VL: EIVMTQSPATLSLSPGERATLSCRASQSIGTKLAWYQQKPGQAPRLLIYDASSRVPGIPARFSGSGSGTDFTLTISSLEPEDFAVYYCQQYGSSPPVYSFGGGTKVEIK"
  OBSERVED_VALUE: 8.09
- BINDER: "AB353 (antibody, IgG1, V domains shown) VH: QVQLQESGPGLVKPSQTLSLTCTVSGLSLSNAKMGVNWIRQPPGKGLEWIGYVSTTGTTDYNPSLKSRVTMSVDTSKNQFSLKVNSVTAADTAVYYCARAGYPDVWGKGTTVTVSS VL: EIVMTQSPATLSLSPGERATLSCRASQNVYTNLAWYQQKPGQAPRLLIYGASARASGIPARFSGSGSGTDFTLTISSLEPEDFAVYYCLQYGSSPPLFGGGTKVEIK"
  OBSERVED_VALUE: 8.98
- BINDER: "AB342 (antibody, IgG1, V domains shown) VH: EVQLVESGGGLVQPGGSLRLSCAASGFDFGEHWMSWVRQAPGKGLELVASIKGDASDTYYPDSVKGRFTISRDNAKNSLYLQMNSLRAEDTAVYYCVKDLSKQWLGIDYWGQGTLVTVSS VL: DIVMTQSPLSLPVTPGEPASISCRSSQSLLHSNEKNYLHWYLQKPGQSPQLLIYDASKRASGVPDRFSGSGSGTDFTLKISRVEAEDVGVYYCVQDLHTPFTFGGGTKVEIK"
  OBSERVED_VALUE: 7.81
- BINDER: "AB372 (antibody, IgG1, V domains shown) VH: QVTLRESGPALVKPTQTLTLTCTVSGFSLSTSGATVNWIRQPPGKALEWIGYITSSGRTVYNSALKSRLTISKDTSKNQVVLTMTNMDPVDTATYYCTTTKIVGATLRDYWGQGTLVTVSS VL: DIVMTQSPDSLAVSLGERATINCKSSQSVLDTSTNRNYLAWYQQKPGQPPKLLIYGASIRAGGVPDRFSGSGSGTDFTLTISSLQAEDVAVYYCQQSYSHPPTFGGGTKVEIK"
  OBSERVED_VALUE: 7.16

Let us move to another entry and its fold-change of OD 450 over negative control (BSA).
Measured fold-change of OD 450 over negative control (BSA) of AB341 (antibody, IgG1, V domains shown) VH: EVQLVESGGGLVQPGGSLRLSCAASGYTFSNYGMSWVRQAPGKGLELVASISKSGSSIYYPDSVKGRFTISRDNAKNSLYLQMNSLRAEDTAVYYCARLPRLAWNYYYGMDVWGQGTTVTVSS VL: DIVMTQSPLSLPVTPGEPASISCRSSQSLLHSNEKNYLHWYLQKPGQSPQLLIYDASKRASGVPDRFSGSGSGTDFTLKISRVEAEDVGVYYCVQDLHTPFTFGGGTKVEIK : 6.71

The measured values listed here are drawn from patent US20250270304A1.
